Please consider the recorded IC50 for Factor D (Homo sapiens (Human), UniProt P00746) in what follows.

Field IC50 (entry NCc1cccc(-c2cccc3ccc(COc4ccccc4CC(=O)O)cc23)c1 [Compound 99d] ) reads > 10000 nM

Field IC50 (entry Cn1cc(-c2cc(-c3cccc(CN)c3)cc3c(COc4ccccc4CC(=O)O)c(C(=O)O)oc23)cn1 [Compound 60d] ) reads < 1000 nM

Field IC50 (entry COc1c(-c2cc3c(COc4ccccc4CC(=O)O)cccc3o2)ccnc1CN [Compound 329d] ) reads 1000 to 10000 nM

Field IC50 (entry NCc1cccc(-c2cc(NCC3CCOC3)c3occ(COc4ccccc4CC(=O)O)c3c2)c1 (centres unmarked) [Compound 147d] ) reads < 1000 nM

Field IC50 (entry NCc1cccc(-c2ccc3cccc(COc4ccccc4CC(=O)O)c3c2)c1 [Compound 100d] ) reads < 1000 nM

Field IC50 (entry NCc1cc(F)cc(-c2ccc3occ(COc4ccccc4CC(=O)O)c3c2)c1 [Compound 40c] ) reads < 1000 nM

Field IC50 (entry CC(=O)c1oc2ccc(-c3cccc(CN)c3)cc2c1COc1ccccc1CC(=O)O [Compound 141c] ) reads < 1000 nM

Field IC50 (entry COc1ccc(CC(=O)O)c(OCc2c(C(C)O)oc3ccc(-c4cccc(CN)c4)cc23)c1 (centres unmarked) [Compound 217c] ) reads < 1000 nM

Field IC50 (entry CC(C)n1nc(COc2ccccc2C(=O)O)c2cc(-c3cccc(CN)c3)ccc21 [Compound 299d] ) reads < 1000 nM

Field IC50 (entry Cc1cc(-c2cccc(CN)c2)cc2c(COc3ccccc3CC(=O)O)coc12 [Compound 17e] ) reads < 1000 nM

Field IC50 (entry NCc1cccc(-c2ccc3onc(COc4ccccc4CC(=O)O)c3c2)c1 [Compound 88e] ) reads < 1000 nM

Field IC50 (entry NCc1cccc(-c2ccc3occ(COc4cc(Br)ccc4CC(=O)O)c3c2)c1 [Compound 192b] ) reads < 1000 nM

Field IC50 (entry CC(O)c1oc2ccc(-c3cccc(CN)c3)cc2c1COc1ccccc1CC(=O)O (centres unmarked) [Compound 125d] ) reads < 1000 nM

Field IC50 (entry Cn1nc(COc2ccccc2CC(=O)O)c2cc(-c3cccc(CN)c3)c3occc3c21 ) reads < 1000 nM

Field IC50 (entry NCc1cccc(-c2cc(C#CC3CC3)c3occ(COc4ccccc4CC(=O)O)c3c2)c1 [Compound 294d] ) reads < 1000 nM

Field IC50 (entry NCc1cccc(-c2ccc3occ(COc4cccc(CC(=O)O)c4)c3c2)c1 ) reads 1000 to 10000 nM

Field IC50 (entry COc1ccc(CC(=O)O)c(OCc2c(C(F)F)oc3ccc(-c4cccc(CN)c4)cc23)c1 [Compound 215d] ) reads < 1000 nM
